Test: Pharmacokinetics after intravenous administration of CK in rats (10 mg/kg)
Assay type: in vivo, Sprague-Dawley rats
Conditions: male, Sprague-Dawley, rat, plasma, iv, 10 mg/kg, male rats, i.v. 10 mg/kg, 0.5 h, Mean±SD; read-out: Plasma concentrations of CK
Outcome Measure: concentration at 0.5 h (ng/mL)

[[record]]
molecule = "CC(C)=CCCC(C)(OC1OC(CO)C(O)C(O)C1O)C1CCC2(C)C1C(O)CC1C3(C)CCC(O)C(C)(C)C3CCC12C (stereo not shown)"
data_value = 333


---

Assay: Pharmacokinetics after intravenous administration of CK in rats (10 mg/kg)
Format: in vivo, Sprague-Dawley rats
Conditions: male, Sprague-Dawley, rat, plasma, iv, 10 mg/kg, male rats, i.v. 10 mg/kg, Mean±SD; read-out: MRT(0-t)
Outcome Measure: MRT last (min)

[[record]]
compound = "CC(C)=CCCC(C)(OC1OC(CO)C(O)C(O)C1O)C1CCC2(C)C1C(O)CC1C3(C)CCC(O)C(C)(C)C3CCC12C (stereo not shown) [CK]"
data_value = 21.6

